// data source = paper PMC9090415

- target-of-assay: P. falciparum apicoplast DNA polymerase (Pf-apPOL) (Plasmodium falciparum, UniProt Q8ILY1)
- Sequence (Q8ILY1 entry or part of it): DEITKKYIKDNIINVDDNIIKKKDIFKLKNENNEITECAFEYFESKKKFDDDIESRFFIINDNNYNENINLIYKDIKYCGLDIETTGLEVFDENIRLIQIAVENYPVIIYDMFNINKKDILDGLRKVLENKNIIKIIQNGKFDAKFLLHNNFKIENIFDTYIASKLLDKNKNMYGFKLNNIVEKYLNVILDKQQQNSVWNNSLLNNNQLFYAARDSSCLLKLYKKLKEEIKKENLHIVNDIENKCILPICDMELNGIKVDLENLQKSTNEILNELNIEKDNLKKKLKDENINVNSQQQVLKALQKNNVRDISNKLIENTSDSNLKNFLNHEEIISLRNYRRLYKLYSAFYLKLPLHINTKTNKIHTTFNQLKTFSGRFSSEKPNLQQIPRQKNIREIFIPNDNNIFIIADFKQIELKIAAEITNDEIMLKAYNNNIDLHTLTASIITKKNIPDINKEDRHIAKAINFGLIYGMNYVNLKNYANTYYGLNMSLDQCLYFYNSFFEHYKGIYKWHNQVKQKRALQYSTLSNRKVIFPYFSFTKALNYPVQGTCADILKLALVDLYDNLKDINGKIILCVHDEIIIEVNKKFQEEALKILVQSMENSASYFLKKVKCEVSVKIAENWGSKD
- protocol-summary: Fluorescence-based high-throughput DNA polymerase assay (molecular beacon), primary screen and dose-response
- Assay type: biochemical
- experimental-context: DRC-2; 5'; concentration 80
Label 1 (yes) when % inhibition Apo pol 5' is at or above 40%; otherwise label 0 (no).

NC(=O)c1cc[n+](CC2=C(C(=O)[O-])N3C(=O)[C@@H](NC(=O)[C@@H](c4ccccc4)S(=O)(=O)[O-])[C@H]3SC2)cc1.[Na+] [Molecule 9]    1 (yes)

Ask | Assess whether reported % inhibition Apo pol 5' for Cc1ccc(-n2nnc(C(=O)O)c2-c2ccccn2)c(F)c1 [Molecule 54, Cc1ccc(c(c1)F)n1nnc(c1c1ccccn1)C(=O)O] sits at 40% or higher.
Reply | 0 (no)

Ask | Given Cc1nc(/N=N/c2ccc(C(=O)[O-])cc2)c(COP(=O)([O-])[O-])c(C=O)c1O.[Na+].[Na+].[Na+] [KU0261395] , state whether its % inhibition Apo pol 5' is at least 40%.
Reply | 1 (yes)

Ask | For this molecule, is measured % inhibition Apo pol 5' 40% or higher? CCCCOC(=O)CCCCCN1C(=O)C(=Cc2ccc(OC)cc2)SC1=S [Molecule 75]
Reply | 1 (yes)

Ask | Hi, just wondering whether COc1ccc(CNC(=O)Cn2nc3c(c2NC(=O)Cc2cccs2)CSC3)cc1 [Molecule 55] shows % inhibition Apo pol 5' of 40% or higher.
Reply | 0 (no)

Ask | Given the entry COc1ccc(-c2n[nH]cc2Oc2ccc(Cl)cc2)c(O)c1 [KU0029837] , answer whether its % inhibition Apo pol 5' meets or surpasses 40%.
Reply | 1 (yes)

Ask | // inclusive: % inhibition Apo pol 5' at least 40%? input: CCCN1COc2ccc3c(=O)c(-c4ccccc4)coc3c2C1 [KU0199556]
Reply | 1 (yes)

Ask | I'd appreciate it if you could say whether Cc1ccc2c(C(=O)NCCc3cccnc3)cc(NC(=O)C(C)C)cc2n1 [KU0206096] has % inhibition Apo pol 5' at least equal to 40%.
Reply | 1 (yes)

Ask | Does O=C1NCCCn2cc(S(=O)(=O)Nc3ccccc3)cc21 [KU0214835] have a reported % inhibition Apo pol 5' of at least 40%?
Reply | 1 (yes)

Ask | Does the molecule COc1ccc(C(=O)Nc2cccc(-c3nc4ncccc4o3)c2)cc1[N+](=O)[O-] [KU0063313] have recorded % inhibition Apo pol 5' that is 40% or more?
Reply | 0 (no)

Ask | Is the recorded value of % inhibition Apo pol 5' equal to or greater than 40% for this molecule? COc1ccc(C=C2Oc3c(ccc4c3CN(c3ccc5c(c3)OCO5)CO4)C2=O)cc1OC [KU0199426]
Reply | 1 (yes)

Ask | Given O=C(O)C(=O)Nc1nc(-c2ccc3c(c2)OCCO3)cs1 [Molecule 82, OC(=O)C(=O)Nc1scc(n1)c1ccc2c(c1)OCCO2] , state whether its % inhibition Apo pol 5' is at least 40%.
Reply | 1 (yes)

Ask | Is reported % inhibition Apo pol 5' greater than or equal to 40% here: Cc1ccc(C(=O)/C=C/C=C/C=C/N(C)C)o1 [Molecule 96, CN(/C=C/C=C/C=C/C(=O)c1ccc(o1)C)C]
Reply | 0 (no)

Ask | Entry O=C(O)c1cccc(N2N=C(C(F)(F)F)/C(=C/c3ccc(-c4ccccc4[N+](=O)[O-])o3)C2=O)c1 [Molecule 100] : is its % inhibition Apo pol 5' no less than 40%?
Reply | 1 (yes)
